METHOD SUMMARY: Cytotoxicity in human foreskin fibroblast cells
Format: cell-based
Experimental: Human foreskin fibroblast (HFF) cells obtained from newborns were prepared and suspended in minimum essential medium (MEM) and supplemented with 10% fetal bovine serum (FBS). Freshly processed cells were incubated for 24 hours at 37° C. in well tissue culture plates in a CO2 incubator (E. R. Kern, J. Infect. Dis., 128:290 (1973)). […]

[
  {
    "COMPOUND": "O=C(O)/C=C/C(=O)O [Fumaric acid, trans 2-butenedioic acid]",
    "CC50": "> 100 µg/mL"
  },
  {
    "COMPOUND": "O=C(O)CC(=O)O [Malonic acid, propanedioic acid]",
    "CC50": "> 100 µg/mL"
  }
]
